- System: Escherichia coli TOP10
- method_description: shrunken log2 fold change of peptide-encoding DNA abundance (4.5 h post-induction vs induction); higher = less antimicrobial activity (less host growth inhibition)
- stated_conditions: time post-induction: 4.5 h; library: site-saturation at positions 5, 18, 19, 20
Record form. Attribute: shrunken log2 fold change. Fill in for each entry.
Give bare numbers.

RRIRQRPPRLPRPRPRPIKYPRP; 0.00234
RRIRFRPPRLPRPRPRPRMCPRP; 0.0779
RRIRGRPPRLPRPRPRPCYKPRP; -0.295

// switching to the query sequence
Challenge: Param item = RRIRGRPPRLPRPRPRPPSYPRP ; retrieve measured shrunken log2 fold change.
Response given: 0.326

* * *

- Tested on: Escherichia coli TOP10
- method_description: shrunken log2 fold change of peptide-encoding DNA abundance (4.5 h post-induction vs induction); higher = less antimicrobial activity (less host growth inhibition)
- stated_conditions: time post-induction: 4.5 h; library: site-saturation at positions 5, 18, 19, 20
assay_readout: shrunken log2 fold change
Numbers only.

RRIRGRPPRLPRPRPRPESRPRP; 0.831
RRIRWRPPRLPRPRPRPTCMPRP; 0.553
RRIRHRPPRLPRPRPRPDENPRP; -0.225

// switching to the query sequence
Challenge: Param item = RRIRVRPPRLPRPRPRPQEPPRP ; retrieve measured shrunken log2 fold change.
Response given: 0.0426

* * *

- Tested on: Escherichia coli TOP10;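 note: peptides expressed intracellularly from a pBAD plasmid library in pooled LB shake-flask culture, induced with 0.3% L-arabinose, DNA abundance read by NGS, three biological replicates, DESeq2 with apeglm shrinkage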
- method_description: shrunken log2 fold change of peptide-encoding DNA abundance (4.5 h post-induction vs induction); higher = less antimicrobial activity (less host growth inhibition)
- stated_conditions: time post-induction: 4.5 h; library: site-saturation at positions 5, 18, 19, 20
Record form. Attribute: shrunken log2 fold change. Fill in for each entry.
Answers are plain numbers.

Below: 5 sequences and their reported shrunken log2 fold change.
RRIRMRPPRLPRPRPRPGGDPRP; 1.58
RRIRMRPPRLPRPRPRPIKVPRP; -0.149
RRIRYRPPRLPRPRPRPGIPPRP; -0.193
RRIRQRPPRLPRPRPRPIWLPRP; 0.66
RRIRSRPPRLPRPRPRPQWMPRP; -0.155

Would you mind giving shrunken log2 fold change for every sequence in the list below?
1. RRIRYRPPRLPRPRPRPCFFPRP
2. RRIRLRPPRLPRPRPRPKGDPRP
3. RRIRVRPPRLPRPRPRPMYDPRP
4. RRIRIRPPRLPRPRPRPLQYPRP
5. RRIRARPPRLPRPRPRPEPGPRP
6. RRIRTRPPRLPRPRPRPRGCPRP

Response given:
-0.619
0.182
-0.0887
-0.591
0.98
0.261

Would you mind giving shrunken log2 fold change for every sequence in the list below?
1. RRIRRRPPRLPRPRPRPVTFPRP
2. RRIRVRPPRLPRPRPRPQQQPRP
3. RRIRARPPRLPRPRPRPWCKPRP
4. RRIRPRPPRLPRPRPRPQAAPRP
5. RRIRQRPPRLPRPRPRPPKNPRP
6. RRIRCRPPRLPRPRPRPPVVPRP

Response given:
[0.00522, 0.0503, 0.102, 0.116, 0.29, 0.0152]

Would you mind giving shrunken log2 fold change for every sequence in the list below?
1. RRIRTRPPRLPRPRPRPDLNPRP
2. RRIRQRPPRLPRPRPRPPCFPRP

Response given:
1: 0.0685; 2: 0.222

Would you mind giving shrunken log2 fold change for every sequence in the list below?
1. RRIRQRPPRLPRPRPRPWIRPRP
2. RRIRFRPPRLPRPRPRPWWCPRP
3. RRIRGRPPRLPRPRPRPSKEPRP
4. RRIRMRPPRLPRPRPRPLNCPRP
5. RRIRYRPPRLPRPRPRPNQVPRP

Response given:
1. -0.166
2. -0.0371
3. 0.289
4. -0.158
5. -0.0141

Would you mind giving shrunken log2 fold change for every sequence in the list below?
1. RRIRLRPPRLPRPRPRPTMRPRP
2. RRIRMRPPRLPRPRPRPHLEPRP
3. RRIRIRPPRLPRPRPRPVNCPRP
4. RRIRMRPPRLPRPRPRPGCHPRP
5. RRIRPRPPRLPRPRPRPKQMPRP
6. RRIRLRPPRLPRPRPRPHAMPRP

Response given:
0.836
0.0983
-0.34
0.0532
0.268
-0.0654

Would you mind giving shrunken log2 fold change for every sequence in the list below?
1. RRIRIRPPRLPRPRPRPQDVPRP
2. RRIRMRPPRLPRPRPRPRFKPRP
3. RRIRQRPPRLPRPRPRPRVSPRP
4. RRIRQRPPRLPRPRPRPQFLPRP

Response given:
1. -0.0964
2. 0.498
3. -0.0909
4. -0.359

Would you mind giving shrunken log2 fold change for every sequence in the list below?
1. RRIRQRPPRLPRPRPRPGFGPRP
2. RRIRQRPPRLPRPRPRPRNYPRP

Response given:
1: 0.245; 2: 0.034

Would you mind giving shrunken log2 fold change for every sequence in the list below?
1. RRIRNRPPRLPRPRPRPSTAPRP
2. RRIRQRPPRLPRPRPRPVPFPRP
3. RRIRARPPRLPRPRPRPNQFPRP
4. RRIRDRPPRLPRPRPRPTGNPRP
5. RRIRPRPPRLPRPRPRPICTPRP
6. RRIRCRPPRLPRPRPRPAIIPRP

Response given:
1: -0.28; 2: -0.374; 3: -0.014; 4: 0.195; 5: 0.0424; 6: -0.786
